- SYSTEM_NAME: T1, Estrogen receptor β ligand-binding domain (ERβ LBD), residues 261 to 500, with N-terminal His6-yBBr-TEV tag (UniProt Q92731 261-500)
- T1 construct: range 261-500; Expressed in E. coli BL21(DE3) pLysS from pET28a+, purified by Ni-NTA and SEC; Assays were run in the presence of estradiol; also called ER LBD; not shown: N-terminal His6-yBBr-TEV tag
- PROCEDURE_DETAILS: direct fluorescence polarization; 10 nM probe, ERβ LBD titrated from 5 µM with estradiol; 1:1 binding model with Hill slope
Non-standard residues stand in square brackets, D forms with d. *: point of attachment. FITC = O=C1OC2(c3ccc(O)cc3Oc3cc(O)ccc32)c2ccc(NC(=S)*)cc21; Nle = CCCC[C@H](N)C(=O)O; βAla = NCCC(=O)O
MEASURED_QUANTITY: pKd
The meaning of pKd here: minus log10 of the concentration in molar units.

[Q] Respond only with pKd recorded for {FITC}-[βAla]HPLL[Nle]RLLLSP-NH2 (Fluorescent probe of the FP assays; also called FITC-ERL4; FITC-ERL4 probe) [FITC labeled ERL4 peptide (FITC-βAla-His-Pro-Leu-Leu-Nle-Arg-Leu-Leu-Leu-Ser-Pro-CONH2)]
[A] 6.80
